Where do the numbers come from? From paper PMC10786891.

study-system: T1, EsCas13d, nuclease-dead (Eubacterium siraeum, UniProt B0MS50, R295A;H300A;R849A;H854A)
T1 sequence: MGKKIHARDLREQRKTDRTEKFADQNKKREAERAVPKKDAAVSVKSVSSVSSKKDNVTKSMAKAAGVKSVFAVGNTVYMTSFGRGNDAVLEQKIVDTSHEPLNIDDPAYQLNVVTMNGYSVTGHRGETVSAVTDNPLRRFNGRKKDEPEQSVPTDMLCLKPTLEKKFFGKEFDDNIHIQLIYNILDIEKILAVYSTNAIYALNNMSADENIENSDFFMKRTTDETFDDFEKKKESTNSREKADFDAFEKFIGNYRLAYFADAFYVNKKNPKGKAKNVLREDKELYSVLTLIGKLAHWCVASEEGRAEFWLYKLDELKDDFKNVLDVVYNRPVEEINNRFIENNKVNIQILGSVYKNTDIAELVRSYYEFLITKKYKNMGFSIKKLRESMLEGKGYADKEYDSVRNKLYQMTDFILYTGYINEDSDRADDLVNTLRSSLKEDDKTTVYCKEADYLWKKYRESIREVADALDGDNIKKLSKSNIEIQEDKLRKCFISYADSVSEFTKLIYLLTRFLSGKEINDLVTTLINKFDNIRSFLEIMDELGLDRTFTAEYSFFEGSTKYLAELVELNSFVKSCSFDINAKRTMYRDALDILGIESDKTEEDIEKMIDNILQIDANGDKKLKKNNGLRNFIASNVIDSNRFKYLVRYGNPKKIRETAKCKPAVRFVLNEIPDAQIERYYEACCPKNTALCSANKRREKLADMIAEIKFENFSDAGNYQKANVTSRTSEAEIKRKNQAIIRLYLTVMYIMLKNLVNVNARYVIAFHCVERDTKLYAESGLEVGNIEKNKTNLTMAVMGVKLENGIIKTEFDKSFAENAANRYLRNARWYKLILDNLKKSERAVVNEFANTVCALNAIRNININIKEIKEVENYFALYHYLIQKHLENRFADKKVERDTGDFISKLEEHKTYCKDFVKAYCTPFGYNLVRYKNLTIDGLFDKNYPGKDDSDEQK
protocol-text: crRNA (strand 1, pre-loaded); Mg2+; 40 mM Tris-HCl pH 7.5, 150 mM NaCl, 6 mM MgCl2, 1 mM DTT, 0.1% Tween-20, 0.2 mg/ml BSA; 25 C; 10 min per concentration, then washed
run-parameters: tags: His6-TwinStrep-SUMO cleaved; N-terminal SNAP kept (SNAP-Surface 488); label: 3' end held by stalled T7 RNA polymerase
For each record, check the reported Kd: if it is below 20 nM write Yes, else write No.

| binder | assigned-category |
| --- | --- |
| target 1 MT 5'PFS GCU 3'PFS CGU (mixed) RNA 1: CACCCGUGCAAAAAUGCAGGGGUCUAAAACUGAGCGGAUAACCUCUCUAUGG RNA 2: GGGAAUGGAUCCACAUCUACGAAUUCGCUCCAUAGAGAGGUUAUCCGCUCACGUAGAUCGGAAGAGCACACGU | No |
| target 1 G5A,G13A (mixed) RNA 1: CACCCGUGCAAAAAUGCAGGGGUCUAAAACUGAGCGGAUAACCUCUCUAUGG RNA 2: GGGAAUGGAUCCACAUCUACGAAUUCGUACCAUAGAGAAGUUAUCCACUCACCGAGAUCGGAAGAGCACACGU | No |
| target 1 A1G,A16G (mixed) RNA 1: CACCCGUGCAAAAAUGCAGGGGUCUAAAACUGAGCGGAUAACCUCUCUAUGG RNA 2: GGGAAUGGAUCCACAUCUACGAAUUCGUACCAUAGGGAGGUUAUCCGCUCGCCGAGAUCGGAAGAGCACACGU | No |
| target 2 MT 5'PFS AUG 3'PFS CCA (mixed) RNA 1: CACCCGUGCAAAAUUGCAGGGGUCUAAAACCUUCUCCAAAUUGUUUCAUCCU RNA 2: GGGAAUGGAUCCACAUCUACGAAUUCAUGAGGAUGAAACAAUUUGGAGAAGCCAAGAUCGGAAGAGCACACGU | No |
| target 2 MT 5'PFS CUU 3'PFS CCA (mixed) RNA 1: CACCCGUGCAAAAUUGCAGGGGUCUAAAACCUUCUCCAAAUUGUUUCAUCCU RNA 2: GGGAAUGGAUCCACAUCUACGAAUUCCUUAGGAUGAAACAAUUUGGAGAAGCCAAGAUCGGAAGAGCACACGU | Yes |
| target 1 insU 3' of 9,insG 3' of 8 (mixed) RNA 1: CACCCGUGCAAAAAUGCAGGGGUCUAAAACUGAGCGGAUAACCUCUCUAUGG RNA 2: GGGAAUGGAUCCACAUCUACGAAUUCGUACCAUAGAGAGGUUAUUGCCGCUCACCGAGAUCGGAAGAGCACACGU | Yes |
| target 1 U10G,G12A (mixed) RNA 1: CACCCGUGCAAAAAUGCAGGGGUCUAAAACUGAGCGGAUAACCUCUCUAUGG RNA 2: GGGAAUGGAUCCACAUCUACGAAUUCGUACCAUAGAGAGAUGAUCCGCUCACCGAGAUCGGAAGAGCACACGU | No |
| target 1 U3A,A14C (mixed) RNA 1: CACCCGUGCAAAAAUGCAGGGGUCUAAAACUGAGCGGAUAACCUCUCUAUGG RNA 2: GGGAAUGGAUCCACAUCUACGAAUUCGUACCAUAGAGCGGUUAUCCGCACACCGAGAUCGGAAGAGCACACGU | No |
